Data credit: ChEMBL document CHEMBL1154184

molecular target: Beta-secretase 1 (Homo sapiens); assay: Inhibition of human recombinant BACE1 by FRET assay
Sequence (P56817 whole entry): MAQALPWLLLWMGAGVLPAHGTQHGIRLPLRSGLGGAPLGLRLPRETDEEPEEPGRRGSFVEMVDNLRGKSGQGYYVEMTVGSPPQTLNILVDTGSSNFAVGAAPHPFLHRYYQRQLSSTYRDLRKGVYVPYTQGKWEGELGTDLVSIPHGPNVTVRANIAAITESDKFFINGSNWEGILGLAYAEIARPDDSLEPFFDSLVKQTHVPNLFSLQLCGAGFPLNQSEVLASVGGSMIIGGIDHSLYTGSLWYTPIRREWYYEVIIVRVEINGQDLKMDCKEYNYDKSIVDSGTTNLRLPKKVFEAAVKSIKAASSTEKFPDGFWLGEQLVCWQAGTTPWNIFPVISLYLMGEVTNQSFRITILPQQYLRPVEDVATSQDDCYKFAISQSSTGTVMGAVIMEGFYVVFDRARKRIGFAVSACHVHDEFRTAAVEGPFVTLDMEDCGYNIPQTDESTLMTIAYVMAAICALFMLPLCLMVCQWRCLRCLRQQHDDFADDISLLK
Please respond with reported log10(Ki) for every item in the list.
Transform log10 | Measure Ki | Unit nM

Which log10(Ki) is listed for `O=C(Nc1ccncc1)c1ccc2c(c1)Nc1ccccc1NC2=O` ? 2.47

Which log10(Ki) is listed for `O=C(Nc1nc2ccc(F)cc2[nH]1)c1ccc2c(c1)Nc1ccccc1NC2=O` ? 2.39

Which log10(Ki) is listed for `O=C(Nc1ccc(F)cc1)c1ccc2c(c1)Nc1ccccc1NC2=O` ? 2.32

Which log10(Ki) is listed for `O=C(Nc1nc(-c2ccc(F)cc2)c[nH]1)c1ccc2c(c1)Nc1ccccc1NC2=O` ? 2.47

Which log10(Ki) is listed for `O=C(Nc1nc2ccncc2[nH]1)c1ccc2c(c1)Nc1ccccc1NC2=O` ? 2.49

Which log10(Ki) is listed for `C[C@@H](NC(=O)c1cc(NS(C)(=O)=O)cc(C(=O)N[C@@H](Cc2ccccc2)[C@@H](O)CNC2CC2)c1)c1ccc(F)cc1` ? 1.00

Which log10(Ki) is listed for `O=C(Nc1nc(-c2ccncc2)c[nH]1)c1ccc2c(c1)Nc1ccccc1NC2=O` ? 2.54
